target or test system: Dual specificity protein kinase CLK3 (Homo sapiens) (UniProt P49761)
Sequence (P49761 whole entry, looked up): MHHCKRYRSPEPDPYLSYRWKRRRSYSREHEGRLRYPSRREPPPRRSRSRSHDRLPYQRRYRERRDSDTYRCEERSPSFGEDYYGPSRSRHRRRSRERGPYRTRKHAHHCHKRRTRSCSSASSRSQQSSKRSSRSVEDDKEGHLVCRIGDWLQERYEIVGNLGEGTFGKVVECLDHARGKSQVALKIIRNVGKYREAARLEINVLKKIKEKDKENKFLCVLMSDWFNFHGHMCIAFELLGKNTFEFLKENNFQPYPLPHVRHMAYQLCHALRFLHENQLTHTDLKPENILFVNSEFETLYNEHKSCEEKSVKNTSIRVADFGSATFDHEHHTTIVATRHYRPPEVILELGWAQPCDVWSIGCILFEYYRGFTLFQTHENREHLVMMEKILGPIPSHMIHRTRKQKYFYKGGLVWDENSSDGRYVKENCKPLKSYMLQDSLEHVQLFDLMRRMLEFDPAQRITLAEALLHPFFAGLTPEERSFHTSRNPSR
settings: at 10 µM
Reported values of residual activity for individual entries
Please state the figure in %; there is no need to write the unit.

molecule: Nc1ccc2ncnc(NCCc3ccc(Oc4ccccc4)cc3)c2c1
residual activity (%): 92
--
molecule: Cc1ccc(NC2=CC(=O)c3sc(C)nc3C2=O)cc1
residual activity (%): 88
--
molecule: Oc1ccc(-c2nc(-c3ccc(F)cc3)c(-c3ccncc3)[nH]2)cc1
residual activity (%): 90
--
molecule: C[C@@H](N)[C@H]1CC[C@H](C(=O)Nc2ccncc2)CC1
residual activity (%): 90
--
molecule: COc1ccc(OC)c2c(=S)c3ccccc3[nH]c12
residual activity (%): 81

Form field: reported residual activity of Nc1cccc(-c2cc3c(Oc4cccc(O)c4)ncnc3[nH]2)c1
63

Next up: CC(C)n1cnc2/c(=N/c3cccc(Cl)c3)nc(NCCO)[nH]c21
12

Then this molecule: O=C1Nc2ccccc2/C1=C1/Nc2ccccc2/C1=N\OCCC(O)CO (stereo not given)
25

# repeat for COc1cc2ncnc(N3CCN(C(=O)Nc4ccc(Oc5ccccc5)cc4)CC3)c2cc1OC
68

Another molecule to check: Nc1n[nH]c2nnc(-c3c(-c4ccccc4)nn4ccccc34)cc12
90

----------
target or test system: Rhodopsin kinase GRK7 (Homo sapiens) (UniProt Q8WTQ7)
Sequence (Q8WTQ7 whole entry): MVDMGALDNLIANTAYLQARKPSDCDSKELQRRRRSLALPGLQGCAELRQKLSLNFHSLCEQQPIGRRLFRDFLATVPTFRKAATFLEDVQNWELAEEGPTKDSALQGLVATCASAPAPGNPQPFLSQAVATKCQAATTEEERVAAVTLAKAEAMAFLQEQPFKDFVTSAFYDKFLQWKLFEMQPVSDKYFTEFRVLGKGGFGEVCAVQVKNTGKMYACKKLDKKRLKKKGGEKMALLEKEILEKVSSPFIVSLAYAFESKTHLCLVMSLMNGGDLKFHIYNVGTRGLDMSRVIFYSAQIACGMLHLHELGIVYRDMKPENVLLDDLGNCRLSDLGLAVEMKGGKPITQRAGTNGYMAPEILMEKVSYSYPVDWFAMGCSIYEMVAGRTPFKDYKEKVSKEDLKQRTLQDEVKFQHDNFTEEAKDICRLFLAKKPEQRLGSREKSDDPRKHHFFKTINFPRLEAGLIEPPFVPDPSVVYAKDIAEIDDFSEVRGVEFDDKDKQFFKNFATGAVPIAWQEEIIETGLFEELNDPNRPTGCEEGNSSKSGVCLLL
settings: at 10 µM
Listed below: residual activity values for each entry.
Answer format: value, then unit.

Consider the following illustrative entries.
molecule: CN(C)c1ccc(/C=C2\C(=O)Nc3ccccc32)cc1
result: 84%
//
molecule: O=c1c2ccccc2[nH]c(=S)n1CCN1CCC(=C(c2ccc(F)cc2)c2ccc(F)cc2)CC1
result: 97%
//
molecule: CC(C)n1cnc2c(NCc3ccccc3)nc(NCCCO)nc21
result: 74%
//
molecule: O=C1Nc2ccccc2/C1=C1/Nc2ccccc2/C1=N\OCCC(O)CO (stereo unspecified)
result: 33%
//
molecule: Cc1nc2cc3nc(-c4cccs4)cnc3cc2n1C
result: 78%

Consider the molecule Nc1n[nH]c2nnc(-c3c(-c4ccccc4)nn4ccccc34)cc12 and give its measured residual activity.
81%

----------
target or test system: Phosphorylase b kinase gamma catalytic chain, liver/testis isoform (Homo sapiens) (UniProt P15735)
Sequence (P15735 whole entry, canonical isoform): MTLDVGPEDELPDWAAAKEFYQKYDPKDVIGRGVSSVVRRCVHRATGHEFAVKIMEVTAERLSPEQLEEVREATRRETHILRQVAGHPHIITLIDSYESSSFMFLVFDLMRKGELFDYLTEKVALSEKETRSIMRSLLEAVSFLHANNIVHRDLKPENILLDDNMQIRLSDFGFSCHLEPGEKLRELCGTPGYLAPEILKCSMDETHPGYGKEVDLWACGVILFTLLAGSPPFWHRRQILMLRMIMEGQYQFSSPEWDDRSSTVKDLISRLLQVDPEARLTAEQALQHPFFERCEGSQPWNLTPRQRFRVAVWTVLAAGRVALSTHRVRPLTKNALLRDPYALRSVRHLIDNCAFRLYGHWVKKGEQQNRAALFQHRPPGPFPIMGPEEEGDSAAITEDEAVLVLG
settings: at 1 µM
test readout: residual activity (%)
# number only, unit % dropped from output

Give the measured residual activity of Nc1nc(Nc2ccc(S(N)(=O)=O)cc2)nn1C(=S)Nc1c(F)cccc1F .
86

Now consider Nc1n[nH]c2nnc(-c3c(-c4ccccc4)nn4ccccc34)cc12 and answer again.
104

Again, but for N#Cc1cnc2cnc(NCc3cccnc3)cc2c1Nc1ccc(F)c(Cl)c1
3

Input Cn1nc2c3c(cccc31)C(=O)c1ccccc1-2
102

----------
target or test system: Serine/threonine-protein kinase TAO2 (Homo sapiens)
settings: at 1 µM
Reported values of residual activity for individual entries
Write the answer as a number in %, unit excluded.

line notation: O=C(Nc1cccc(Nc2nccc(Nc3cccc(C(F)(F)F)c3)n2)c1)C1CC1
target or test system: Serine/threonine-protein kinase TAO2 (Homo sapiens)
residual activity / %: 92

Lab request: please report residual activity under test system Serine/threonine-protein kinase TAO2 (Homo sapiens) for CCN(CC)C(=O)c1ccc(Nc2nc(OCC3CCCCC3)c3nc[nH]c3n2)cc1
51

Now give it for Oc1c2ccccc2c2c3c(cccc13)N=N2 too.
101

// query: Cc1nc2cc3nc(-c4cccs4)cnc3cc2n1C
113

Quick one: CC[n+]1c(/C=C/N(C)c2ccccc2)n(-c2ccccc2)c2ccc(-c3nc4ccccc4s3)cc21
100

Follow-up entry: O=C(O)c1ccc2c3c1cccc3c(=O)n1c3ccccc3nc21
110

Entry to check: O=C(Nc1cccc(Nc2cc(Nc3cccc(C(F)(F)F)c3)ncn2)c1)C1CC1
94

Continue with COc1cc2ncnc(Nc3ccc(NC(=O)c4ccccc4)cc3)c2cc1OC
98

What about this compound? Cc1ccc(NC2=CC(=O)c3sc(C)nc3C2=O)cc1
95

----------
Measured residual activity, listed per entry for reference.
target or test system: Ephrin type-A receptor 5 (Homo sapiens)
settings: at 10 µM
Form entry: value (%) — number only.

line notation: O=Nc1c(-c2c(O)[nH]c3ccccc23)[nH]c2ccccc12
target or test system: Ephrin type-A receptor 5 (Homo sapiens)
residual activity, %: 9

We next turn to a different compound, shown below.
May I ask what residual activity has been recorded for CC#CC(=O)Nc1cc2c(Nc3ccc(F)c(Cl)c3)ncnc2cn1 ?
97

----------
target or test system: Proto-oncogene tyrosine-protein kinase ROS (Homo sapiens)
settings: at 10 µM
Property: residual activity; scope: individual compounds
I only need the number, in %, no unit after it.

The examples below pair each entry with its known result.
line notation: CNc1cc2c(Nc3cccc(Br)c3)ncnc2cn1
target or test system: Proto-oncogene tyrosine-protein kinase ROS (Homo sapiens)
test readout: residual activity
measured number: 99
--
line notation: CN(C)c1ccc(/C=C2\C(=O)Nc3ccccc32)cc1
target or test system: Proto-oncogene tyrosine-protein kinase ROS (Homo sapiens)
test readout: residual activity
measured number: 103
--
line notation: Cn1nc2c3c(cccc31)C(=O)c1ccccc1-2
target or test system: Proto-oncogene tyrosine-protein kinase ROS (Homo sapiens)
test readout: residual activity
measured number: 88
--
line notation: COc1cccc(-c2cc(=O)c3ccccc3o2)c1N
target or test system: Proto-oncogene tyrosine-protein kinase ROS (Homo sapiens)
test readout: residual activity
measured number: 97
--
line notation: O=C1NC(=O)c2c1c1c3ccccc3[nH]c1c1[nH]c3cc(Br)ccc3c21
target or test system: Proto-oncogene tyrosine-protein kinase ROS (Homo sapiens)
test readout: residual activity
measured number: 96

For the compound shown here, Nc1ccc2ncnc(NCCc3ccc(Oc4ccccc4)cc3)c2c1 , give the reported residual activity.
100

Then what about the compound O=c1c2ccccc2[nH]c(=S)n1CCN1CCC(=C(c2ccc(F)cc2)c2ccc(F)cc2)CC1 ?
99

Entry c1ccc(-c2n[nH]c3c2oc2ccccc23)cc1 please
93

Same lookup for Cc1cc2ncc(-c3ccccc3)nc2cc1C , please.
100

Now consider O=C1NC(=O)/C(=C\c2ccc3nccnc3c2)S1 and answer again.
99

----------
Examples of molecules with documented residual activity follow.
target or test system: Discoidin domain-containing receptor 2 (Homo sapiens) (UniProt Q16832)
Sequence (Q16832 whole entry, the tested form may be a part): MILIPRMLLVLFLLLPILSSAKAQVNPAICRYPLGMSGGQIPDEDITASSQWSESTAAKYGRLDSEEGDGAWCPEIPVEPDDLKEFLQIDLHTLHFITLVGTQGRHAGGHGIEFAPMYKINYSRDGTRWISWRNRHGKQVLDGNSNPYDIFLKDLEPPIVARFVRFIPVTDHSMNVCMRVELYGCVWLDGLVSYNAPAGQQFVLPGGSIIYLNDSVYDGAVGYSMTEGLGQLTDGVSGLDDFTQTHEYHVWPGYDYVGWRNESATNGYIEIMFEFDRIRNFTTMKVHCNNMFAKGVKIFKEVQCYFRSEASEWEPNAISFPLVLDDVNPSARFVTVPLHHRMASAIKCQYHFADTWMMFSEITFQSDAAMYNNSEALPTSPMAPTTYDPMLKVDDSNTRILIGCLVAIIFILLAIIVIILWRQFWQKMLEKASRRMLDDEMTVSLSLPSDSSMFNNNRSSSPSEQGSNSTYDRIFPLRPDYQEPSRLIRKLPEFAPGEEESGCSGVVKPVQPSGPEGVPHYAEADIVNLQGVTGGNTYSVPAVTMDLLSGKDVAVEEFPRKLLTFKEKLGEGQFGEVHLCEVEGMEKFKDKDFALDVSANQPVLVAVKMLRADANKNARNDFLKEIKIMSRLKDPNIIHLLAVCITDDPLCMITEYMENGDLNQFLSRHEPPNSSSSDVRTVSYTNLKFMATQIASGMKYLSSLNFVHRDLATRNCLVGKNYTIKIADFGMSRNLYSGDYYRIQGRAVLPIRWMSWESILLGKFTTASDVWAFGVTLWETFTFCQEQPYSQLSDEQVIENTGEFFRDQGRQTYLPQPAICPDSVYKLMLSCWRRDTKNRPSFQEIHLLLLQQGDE
settings: at 1 µM
The response must be a number in % with no trailing unit.

Example entries begin here.
line notation: Cc1cc2ncc(-c3ccccc3)nc2cc1C
residual activity [%]: 102

line notation: Cc1cncc2cccc(S(=O)(=O)N3CCCN(C(=O)CN)C[C@H]3C)c12
residual activity [%]: 126

Short answer please: residual activity, Discoidin domain-containing receptor 2 (Homo sapiens) (UniProt Q16832), entry CCN(CC)C(=O)c1ccc(Nc2nc(OCC3CCCCC3)c3nc[nH]c3n2)cc1
93

----------
target or test system: Ephrin type-A receptor 7 (Homo sapiens) (UniProt Q15375)
Sequence (Q15375 28-998 limits assumed): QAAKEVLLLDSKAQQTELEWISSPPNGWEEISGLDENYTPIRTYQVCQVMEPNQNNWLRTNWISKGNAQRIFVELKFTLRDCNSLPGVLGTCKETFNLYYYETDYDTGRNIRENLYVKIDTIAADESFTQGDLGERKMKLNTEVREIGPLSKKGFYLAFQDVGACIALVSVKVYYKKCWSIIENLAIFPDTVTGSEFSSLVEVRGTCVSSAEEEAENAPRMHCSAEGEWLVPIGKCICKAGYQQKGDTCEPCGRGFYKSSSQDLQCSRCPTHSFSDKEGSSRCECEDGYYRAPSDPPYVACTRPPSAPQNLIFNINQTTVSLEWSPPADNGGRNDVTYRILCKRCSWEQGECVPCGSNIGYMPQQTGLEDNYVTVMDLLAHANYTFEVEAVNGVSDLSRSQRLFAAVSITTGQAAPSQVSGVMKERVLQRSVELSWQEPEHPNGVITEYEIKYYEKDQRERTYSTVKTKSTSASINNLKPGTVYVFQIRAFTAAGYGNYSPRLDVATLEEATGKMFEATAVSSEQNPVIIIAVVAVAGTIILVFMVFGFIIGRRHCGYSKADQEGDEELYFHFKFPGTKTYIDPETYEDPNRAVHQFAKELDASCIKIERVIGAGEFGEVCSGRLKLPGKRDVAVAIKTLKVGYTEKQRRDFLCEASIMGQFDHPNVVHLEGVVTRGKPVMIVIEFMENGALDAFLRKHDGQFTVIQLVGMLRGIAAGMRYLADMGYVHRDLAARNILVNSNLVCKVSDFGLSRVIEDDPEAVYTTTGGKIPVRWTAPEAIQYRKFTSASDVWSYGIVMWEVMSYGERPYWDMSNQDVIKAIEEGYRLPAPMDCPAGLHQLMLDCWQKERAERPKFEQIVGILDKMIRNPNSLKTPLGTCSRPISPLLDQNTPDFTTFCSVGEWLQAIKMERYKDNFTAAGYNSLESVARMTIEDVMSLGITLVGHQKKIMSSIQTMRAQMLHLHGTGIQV
settings: at 10 µM
test readout: residual activity
A bare number is not enough; add the unit after it.

Guide cases for residual activity, answers given:
line notation: O=c1c2ccccc2[nH]c(=S)n1CCN1CCC(=C(c2ccc(F)cc2)c2ccc(F)cc2)CC1
residual activity: 92%
//
line notation: Cn1nc2c3c(cccc31)C(=O)c1ccccc1-2
residual activity: 88%

Now, please, on to the next compound.
Consider the compound O=C(O)c1ccc2c3c1cccc3c(=O)n1c3ccccc3nc21 and give its measured residual activity.
88%

----------
target or test system: Focal adhesion kinase 1 (Homo sapiens)
settings: at 1 µM
Recorded residual activity values for a group of compounds are listed next.
Kindly provide the numeric value in % only, without the unit symbol.

line notation: Nc1nc(Nc2ccc(S(N)(=O)=O)cc2)nn1C(=S)Nc1c(F)cccc1F
test readout: residual activity
measured number: 20
--
line notation: Cn1cc(/C=C2\C(=O)Nc3ccc(S(N)(=O)=O)cc32)c2ccccc21
test readout: residual activity
measured number: 103
--
line notation: COc1ccc(S(=O)(=O)N(CCO)c2ccccc2CN(C)C/C=C/c2ccc(Cl)cc2)cc1
test readout: residual activity
measured number: 93
--
line notation: N#CCCc1ccc2c(c1)-c1[nH]c3ccc([N+](=O)[O-])cc3c1CC(=O)N2
test readout: residual activity
measured number: 50
--
line notation: Cc1nc2cc3nc(-c4cccs4)cnc3cc2n1C
test readout: residual activity
measured number: 80
--
line notation: COc1cc2ncnc(Nc3ccc(O)c(Br)c3)c2cc1OC
test readout: residual activity
measured number: 106

Now consider the entry below.
Need residual activity, item O=c1c2ccccc2[nH]c(=S)n1CCN1CCC(=C(c2ccc(F)cc2)c2ccc(F)cc2)CC1
135

----------
target or test system: Serine/threonine-protein kinase MRCK beta (Homo sapiens)
settings: at 1 µM
residual activity overview
Report the value in % with no unit label.

line notation: Cn1cc(/C=C2\C(=O)Nc3ccc(S(N)(=O)=O)cc32)c2ccccc21
target or test system: Serine/threonine-protein kinase MRCK beta (Homo sapiens)
residual activity, %: 83
--
line notation: c1ccc(-c2n[nH]c3c2oc2ccccc23)cc1
target or test system: Serine/threonine-protein kinase MRCK beta (Homo sapiens)
residual activity, %: 98
--
line notation: Ic1cccc(CSc2nnc(-c3ccncc3)o2)c1
target or test system: Serine/threonine-protein kinase MRCK beta (Homo sapiens)
residual activity, %: 87
--
line notation: Oc1n[nH]c2nnc(-c3c(-c4ccccc4)nn4ccccc34)cc12
target or test system: Serine/threonine-protein kinase MRCK beta (Homo sapiens)
residual activity, %: 88
--
line notation: c1ccc2c(-c3ccncc3)c[nH]c2c1
target or test system: Serine/threonine-protein kinase MRCK beta (Homo sapiens)
residual activity, %: 94

Please look up its residual activity: CO[C@H]1[C@@H](OC)C[C@H](C)[C@@H](OC)C2=CC(=O)C=C(NC(=O)/C(C)=C/C=C/[C@H](OC)[C@@H](OC(N)=O)/C(C)=C/[C@@H]1C)C2=O
97

Then Oc1ccc(Nc2nc(-c3ccc(Cl)cc3)cs2)cc1 ?
111

Moving on to Cc1ccc(S(=O)(=O)/C=C/C#N)cc1
89

Then this molecule: COc1cc2ncnc(N3CCN(C(=O)Nc4ccc(Oc5ccccc5)cc4)CC3)c2cc1OC
83
